test: Pharmacokinetic study; type: in vivo, Sprague-Dawley rats; details: Sprague-Dawley, rat, lung, inhaled or intranasal, 3.5 mg/kg
measuredQuantity: Tmax
# output: number + unit

Give Tmax for COc1cc(C2Oc3cc([C@H]4Oc5cc(O)cc(O)c5C(=O)[C@@H]4O)ccc3OC2CO)ccc1O (stereo partly shown)
1 h

----------
experiment: Pharmacokinetic study; type: in vivo, Sprague-Dawley rats; details: Sprague-Dawley, rat, plasma, inhaled or intranasal, 3.5 mg/kg
measuredQuantity: half-life (h)
One number for each entry, in h.

Hello, please tell me recorded half-life for this one: COc1cc(C2Oc3cc([C@H]4Oc5cc(O)cc(O)c5C(=O)[C@@H]4O)ccc3OC2CO)ccc1O (stereo partly shown)
8.9

----------
assay: Pharmacokinetic study; format: in vivo, Sprague-Dawley rats; details: Sprague-Dawley, rat, plasma, inhaled or intranasal, 3.5 mg/kg
measuredQuantity: Tmax (h)
Numbers only, in h.

Given the compound COc1cc(C2Oc3cc([C@H]4Oc5cc(O)cc(O)c5C(=O)[C@@H]4O)ccc3OC2CO)ccc1O (stereo partly shown) , write its reported Tmax.
1

----------
experiment: Pharmacokinetic study; format: in vivo, Sprague-Dawley rats; conditions: Sprague-Dawley, rat, lung, inhaled or intranasal, 3.5 mg/kg
measuredQuantity: MRT (h)
Give bare numbers, in h.

Let me know recorded MRT for COc1cc(C2Oc3cc([C@H]4Oc5cc(O)cc(O)c5C(=O)[C@@H]4O)ccc3OC2CO)ccc1O (stereo partly shown) [silibinin] , thanks.
3.88

----------
assay: Pharmacokinetic study; assay type: in vivo, Sprague-Dawley rats; settings: Sprague-Dawley, rat, plasma, inhaled or intranasal, 3.5 mg/kg
measuredQuantity: Cmax (ng/mL)
Give bare numbers, in ng/mL.

Identify Cmax associated with the molecule COc1cc(C2Oc3cc([C@H]4Oc5cc(O)cc(O)c5C(=O)[C@@H]4O)ccc3OC2CO)ccc1O (stereo partly shown) [silibinin]
23600

----------
assay: Pharmacokinetic study; assay type: in vivo, Sprague-Dawley rats; details: Sprague-Dawley, rat, plasma, inhaled or intranasal, 3.5 mg/kg
measuredQuantity: MRT

Provide only the value of recorded MRT for COc1cc(C2Oc3cc([C@H]4Oc5cc(O)cc(O)c5C(=O)[C@@H]4O)ccc3OC2CO)ccc1O (stereo partly shown) [silibinin]
4.25 h
